For each entry below, report its Percent Effect value.
- TARGET OR SYSTEM: Aspartate--tRNA(Asp/Asn) ligase (Mycobacterium tuberculosis (strain ATCC 25618 / H37Rv)) (UniProt P9WFW3)
- Sequence (P9WFW3 whole entry): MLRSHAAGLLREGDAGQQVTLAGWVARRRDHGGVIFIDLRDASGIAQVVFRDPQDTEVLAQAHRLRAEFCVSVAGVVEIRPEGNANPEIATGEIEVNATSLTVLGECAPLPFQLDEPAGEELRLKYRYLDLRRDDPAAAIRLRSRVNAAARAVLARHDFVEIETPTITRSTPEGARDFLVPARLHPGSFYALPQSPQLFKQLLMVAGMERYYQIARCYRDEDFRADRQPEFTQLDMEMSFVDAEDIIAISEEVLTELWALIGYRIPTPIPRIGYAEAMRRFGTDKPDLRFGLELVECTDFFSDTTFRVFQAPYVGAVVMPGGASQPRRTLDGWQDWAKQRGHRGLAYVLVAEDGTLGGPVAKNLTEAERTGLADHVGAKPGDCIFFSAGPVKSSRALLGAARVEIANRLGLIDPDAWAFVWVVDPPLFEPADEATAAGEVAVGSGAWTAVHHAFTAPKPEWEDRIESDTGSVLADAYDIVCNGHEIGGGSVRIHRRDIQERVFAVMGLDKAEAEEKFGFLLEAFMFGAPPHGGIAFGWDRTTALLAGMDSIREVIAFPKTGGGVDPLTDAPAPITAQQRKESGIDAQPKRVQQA
- ASSAY PROCEDURE: Assay for Asp RNA synthetase-1 from Mycobacterium tuberculosis
- Type: functional
- Design: scale not given: in the data most compounds retested in dose-response had high values
- CONDITION NOTES: 30 µM
Numbers only; they are read as %.

Tell me its Percent Effect given "Cc1ccc2cc(CNCCCO)c(=O)[nH]c2c1" as the entry.
-1.41

Tell me its Percent Effect given "O=C(c1cc(F)ccc1F)C1CCN(C(=O)c2ccccn2)CC1" as the entry.
-3.52

Tell me its Percent Effect given CN1CCOC(CNCc2cccc(OCc3ccccn3)c2)C1 (stereo not given) as the entry.
-8.22

Tell me its Percent Effect given CCOc1nnc(CN(C)CC2CCCN2c2cccnn2)s1 (stereo not given) as the entry.
-1.14

Tell me its Percent Effect given "CN1Cc2c(C(=O)Nc3cccnc3)ncn2-c2ccccc2S1(=O)=O" as the entry.
-2.67

Tell me its Percent Effect given CCn1cc(NC(=O)NCC(O)COc2cccc(F)c2)cn1 (stereo not given) as the entry.
1.57

Tell me its Percent Effect given COCC1CC2(CCN(C(=O)c3cc(C)oc3C)CC2)CN1C(C)C (stereo not given) as the entry.
-2.27

Tell me its Percent Effect given Cc1cc(NC(=O)CN2CCOC(Cn3cccn3)C2)n(C)n1 (stereo not given) as the entry.
-3.92

Tell me its Percent Effect given "N#Cc1ccccc1OCCN1CCC(N2CCNC2=O)CC1" as the entry.
-0.816

Tell me its Percent Effect given "O=C(NCc1nn(-c2ccccc2)c2c1CCC2)NC1CC1" as the entry.
1.63

Tell me its Percent Effect given "C[C@@H]1CN(C(=O)c2cccs2)C[C@]12CCN(CCN(C)C)C2=O" as the entry.
-0.228

Tell me its Percent Effect given "COc1ccc(CN(C)[C@@H]2CN(C(=O)c3cccs3)C[C@H]2O)cc1" as the entry.
-4.54

Tell me its Percent Effect given "O=C(O)C1(Cc2cc(-c3cccc(F)c3)no2)CCOCC1" as the entry.
-1.59

Tell me its Percent Effect given "CCN(CC)C(=O)Cn1ccc2cc(NC(=O)C3CC3)ccc21" as the entry.
-1.5

Tell me its Percent Effect given "COc1ncc(CN2CC[C@@](C)(O)[C@H](Oc3cccc(F)c3)C2)cn1" as the entry.
6.63

Tell me its Percent Effect given "CN(CCc1ccccc1)Cc1cc(C(=O)N2CCCC2(C)C)no1" as the entry.
0.433

Tell me its Percent Effect given "COc1ccc(CN(C)C(=O)NCc2c(C)cc(C)[nH]c2=O)cc1" as the entry.
0.281

Tell me its Percent Effect given "Cc1ccc(-c2ncc(C(=O)NCCNC(=O)C(C)C)s2)c(C)c1" as the entry.
2.19

Tell me its Percent Effect given "COCC(=O)NCc1cc(=O)n2c(n1)CN(Cc1ccsc1)CCC2" as the entry.
5.55

Tell me its Percent Effect given "CC(=O)Nc1cccc(OCCNC(=O)N(C)Cc2ccco2)c1" as the entry.
-1.02

Tell me its Percent Effect given "O=C(Nc1cccnc1)[C@H]1C[C@@H]2CN(C(=O)NC3CCCC3)C[C@H]1O2" as the entry.
2.61

Tell me its Percent Effect given "COc1cccc(-c2nc(C)c(C(=O)N[C@@H](C)C(=O)O)s2)c1" as the entry.
-1.66

Tell me its Percent Effect given CC(=O)Nc1nc(CN2CCOC(Cn3cc(C)cn3)C2)cs1 (stereo not given) as the entry.
-1.93

Tell me its Percent Effect given "CN(C)c1ncc(CN2CCC(c3nnsc3S(C)(=O)=O)CC2)cn1" as the entry.
-3.26

Tell me its Percent Effect given "Cc1nc(C(=O)N2CCc3c(nc(-c4ccncc4)[nH]c3=O)C2)cs1" as the entry.
0.783

Tell me its Percent Effect given Fc1ccc(-c2nnc(CN3CCCC3Cn3cncn3)o2)cc1 (stereo not given) as the entry.
-1.49

Tell me its Percent Effect given "CCc1nc(CN2CCCN(Cc3cnn(C)c3)CC2)no1" as the entry.
-10.6

Tell me its Percent Effect given "CN(C)CCN(C)C(=O)c1cnc2c(c1)nc(-c1ccccc1Cl)n2C" as the entry.
7.01

Tell me its Percent Effect given "O=C(c1cccnc1)N1C[C@@H]2CC[C@H](C1)N(Cc1ncc[nH]1)C2" as the entry.
2.47

Tell me its Percent Effect given O=C1N(CCCc2ccccc2)CCCC1(O)CNCc1ccccc1 (stereo not given) as the entry.
4.53

Tell me its Percent Effect given CCS(=O)(=O)N1CCC2(CC1)CC(Oc1ccccn1)CO2 (stereo not given) as the entry.
-0.51

Tell me its Percent Effect given "Cc1cc(NCc2cc3n(n2)CCCN(C(=O)N(C)C)C3)ncn1" as the entry.
0.54

Tell me its Percent Effect given "O=C(Cc1cccc(Cl)c1)N[C@@H]1CCNC[C@H]1O" as the entry.
-3.06

Tell me its Percent Effect given "O=C(Cc1ccccn1)N1C[C@@H]2CC[C@H](C1)N(Cc1ccccc1)C2=O" as the entry.
-1.24

Tell me its Percent Effect given Cc1nn(C)c(C)c1C1CCCN1C(=O)CCc1cscn1 (stereo not given) as the entry.
-2.02

Tell me its Percent Effect given "CC(C)Oc1ncnc2c1CCN(C(=O)c1cccn1C)CC2" as the entry.
-1.46

Tell me its Percent Effect given "COC(=O)COc1nc(CC(C)C)c2c(c1C#N)CCCC2" as the entry.
-0.893

Tell me its Percent Effect given Cc1n[nH]c(C2CN(C(=O)c3ccco3)CCO2)n1 (stereo not given) as the entry.
2.88

Tell me its Percent Effect given "COCCO[C@H]1CCN(C(=O)C2CCOCC2)[C@H]1Cc1ccncc1" as the entry.
4.84

Tell me its Percent Effect given "O=C(NCc1nnc2n1CCCC2)N(Cc1ccccc1F)C1CC1" as the entry.
-1.44

Origin of values: ChEMBL document CHEMBL3988442
